- protocol-notes: degree of order S (dichroic ratio CR) in ZLI 1957/5 at room temperature
- Assay type: physicochemical
- settings: ZLI 1957/5 liquid crystal mixture (Merck)
measure-name: Degree of order S

# example entries with known answers
compound: CCCCN(C)c1ccc(N=Nc2cc(C)c(N=Nc3ccc(-n4nc5ccc(C)cc5n4)c(C)c3)cc2C)cc1 [Example 20]
Degree of order S: 0,74
//
compound: CCCCN(C)c1ccc(N=Nc2cc(C)c(N=Nc3ccc(-n4nc5ccc(C)cc5n4)c(C)c3)cc2OC)cc1 [Example 29]
Degree of order S: 0,71
//
compound: Cc1ccc2nn(-c3ccc(N=Nc4ccc(N=Nc5ccc(N(C)CC(C)C)cc5C)cc4C)cc3C)nc2c1 [Example 28]
Degree of order S: 0,72

Shift focus to the following entry.
Q) Identify the reported Degree of order S for the following entry. CCCCN(C)c1ccc(N=Nc2cc(OC)c(N=Nc3ccc(-n4nc5ccc(C)cc5n4)c(C)c3)cc2OC)cc1 [Example 30]
A) 0,67

====

Below, each entry is listed with its recorded Degree of order S.
- protocol-notes: degree of order S (dichroic ratio CR) in ZLI 1840 at room temperature
- Format: physicochemical
- Set-up: key: S = (CR-1)/(CR+2), with CR = E∥/E⊥ dichroic ratio
- settings: ZLI 1840 wide-range mixture (Merck)

chemical-string: CCCCN(C)c1ccc(N=Nc2ccc(N=Nc3ccc(-n4nc5ccc(C)cc5n4)c(C)c3)c(C)c2)cc1
Degree of order S: 0,77
--
chemical-string: CCOC(=O)c1nn(-c2ccc(N=Nc3cc(C)c(N=Nc4ccc(N(C)C)cc4)cc3C)cc2)nc1C
Degree of order S: 0,73
--
chemical-string: COc1cc(N=Nc2ccc(N(C)C)cc2)ccc1N=Nc1ccc(-n2nc(C)c(C)n2)cc1
Degree of order S: 0,70
--
chemical-string: CCCCc1ccc2nn(-c3ccc(N=Nc4cc(C)c(N=Nc5ccc(N(C)C)c6ccccc56)cc4C)cc3C)nc2c1
Degree of order S: 0,65
--
chemical-string: CN(C)c1ccc(N=Nc2ccc(-n3nc4c(n3)CCCC4)cc2)cc1
Degree of order S: 0,71

Q) Identify the reported Degree of order S for the following entry. CCCCc1ccc2nn(-c3ccc(N=Nc4ccc(N=Nc5ccc(N(C)C)cc5)cc4C)cc3C)nc2c1
A) 0,79

Q) Identify the reported Degree of order S for the following entry. CCCCc1ccc2nn(-c3ccc(N=Nc4cc(C)c(N=Nc5ccc(NC)c6ccccc56)cc4C)cc3C)nc2c1
A) 0,70

Q) Identify the reported Degree of order S for the following entry. Cc1ccc2nn(-c3ccc(N=Nc4ccc(N=Nc5ccc(N(C)C)cc5C)cc4C)cc3C)nc2c1
A) 0,76

Q) Identify the reported Degree of order S for the following entry. Cc1ccc2nn(-c3ccc(N=Nc4ccc(N=Nc5ccc(N(C)C)cc5)cc4C)cc3C)nc2c1
A) 0,76

Q) Identify the reported Degree of order S for the following entry. CCCCNc1ccc(N=Nc2ccc(N=Nc3ccc(-n4nc5ccc(C)cc5n4)c(C)c3)c(C)c2)cc1
A) 0,77

====

- protocol-notes: solubility L in ZLI 1957/5 at room temperature
- Type: physicochemical
- settings: ZLI 1957/5 liquid crystal mixture (Merck)
Below, each entry is listed with its recorded Solubility L.

# example entries with known answers
chemical-string: CCCCN(C)c1ccc(N=Nc2cc(C)c(N=Nc3ccc(-n4nc5ccc(C)cc5n4)c(C)c3)cc2C)cc1
Solubility L: 2,0%
--
chemical-string: CCCCN(C)c1ccc(N=Nc2cc(C)c(N=Nc3ccc(-n4nc5ccc(C)cc5n4)c(C)c3)cc2OC)cc1
Solubility L: 0,5%
--
chemical-string: Cc1ccc2nn(-c3ccc(N=Nc4ccc(N=Nc5ccc(N(C)CC(C)C)cc5C)cc4C)cc3C)nc2c1
Solubility L: 1,5%

Q) Identify the reported Solubility L for the following entry. CCCCN(C)c1ccc(N=Nc2cc(OC)c(N=Nc3ccc(-n4nc5ccc(C)cc5n4)c(C)c3)cc2OC)cc1
A) 0,3%

====

- protocol-notes: solubility L in ZLI 1840 at room temperature
- Assay type: physicochemical
- settings: ZLI 1840 (Merck), stirred 1 week
measure-name: Solubility L

# example entries with known answers
compound: CCCCc1ccc2nn(-c3ccc(N=Nc4cc(C)c(N=Nc5ccc(N(C)C)c6ccccc56)cc4C)cc3C)nc2c1
measure-name: Solubility L
experimental-value: 0,1%
//
compound: CCCCN(C)c1ccc(N=Nc2ccc(N=Nc3ccc(-n4nc5ccc(C)cc5n4)c(C)c3)c(C)c2)cc1
measure-name: Solubility L
experimental-value: > 5%
//
compound: Cc1ccc2nn(-c3cc(C)c(N=Nc4cc(C)c(N=Nc5ccc(N(C)C)cc5)cc4C)cc3C)nc2c1
measure-name: Solubility L
experimental-value: 0,5%
//
compound: CCC1CCC(c2ccc(COc3ccc(N=Nc4cc(C)c(N=Nc5ccc(-n6nc7ccc(C)cc7n6)c(C)c5)cc4C)c(C)c3)cc2)CC1 (stereo not drawn)
measure-name: Solubility L
experimental-value: 2,9%
//
compound: CCCCc1ccc2nn(-c3ccc(N=Nc4cc(C)c(N=Nc5ccc(NC)c6ccccc56)cc4C)cc3C)nc2c1
measure-name: Solubility L
experimental-value: 2,0%

Q) Identify the reported Solubility L for the following entry. Cc1ccc2nn(-c3ccc(N=Nc4cc(C)c(N=Nc5ccc(N(C)C)cc5)cc4C)cc3)nc2c1
A) 0,6%

====

- protocol-notes: solubility L in ZLI 1840 at room temperature
- Assay type: physicochemical
- settings: ZLI 1840 (Merck), stirred 1 week
measure-name: Solubility L

Q) Identify the reported Solubility L for the following entry. CCCCc1ccc2nn(-c3ccc(N=Nc4ccc(N=Nc5ccc(N(C)C)cc5)cc4C)cc3C)nc2c1 [Example 15]
A) 2,8%

====

Below, each entry is listed with its recorded exposure time E∥80% after which E∥ has decreased to 80%.
- protocol-notes: light-stability, high-speed exposure of the measuring cell in a Suntest
- Format: physicochemical
- settings: 25° C
- Description: The light-stability was determined by high-speed exposure of the measuring cell in a Suntest from Hanau, at 25° C. In this procedure, the decrease in E^.parallel. was measured. The initial extinction E^.parallel. and the exposure time E^.parallel.80% after which E^.parallel. has decreased to 80% are shown in Table 2 for Examples 5, 8, 9, 10, 11, 12, 13, 14 and 15. The percentage change in E^.parallel.0 is plotted against the exposure time in FIGS. 2, 3 and 4 for Examples 8, 11 and 15.
Answer format: numeric, h implied, no suffix.

# example entries with known answers
compound: Cc1ccc2nn(-c3ccc(N=Nc4ccc(N=Nc5ccc(N)cc5C)cc4C)cc3C)nc2c1 [Example 11]
value-units: h
experimental-value: 170
//
compound: CCCCN(CCCC)c1ccc(N=Nc2ccc(N=Nc3ccc(-n4nc5ccc(C)cc5n4)c(C)c3)c(C)c2)cc1 [Example 13]
value-units: h
experimental-value: 97
//
compound: Cc1ccc2nn(-c3ccc(N=Nc4cc(C)c(N=Nc5ccc(N(C)C)cc5)cc4C)cc3)nc2c1 [Example 10]
value-units: h
experimental-value: 147
//
compound: CCOC(=O)c1nn(-c2ccc(N=Nc3cc(C)c(N=Nc4ccc(N(C)C)cc4)cc3C)cc2)nc1C [Example 5]
value-units: h
experimental-value: 101
//
compound: Cc1ccc2nn(-c3cc(C)c(N=Nc4cc(C)c(N=Nc5ccc(N(C)C)cc5)cc4C)cc3C)nc2c1 [Example 9]
value-units: h
experimental-value: 111

Q) Identify the reported exposure time E∥80% after which E∥ has decreased to 80% for the following entry. CCCCc1ccc2nn(-c3ccc(N=Nc4ccc(N=Nc5ccc(N(C)C)cc5)cc4C)cc3C)nc2c1 [Example 15]
A) 68

Q) Identify the reported exposure time E∥80% after which E∥ has decreased to 80% for the following entry. CCCCc1ccc2nn(-c3ccc(N=Nc4cc(C)c(N=Nc5ccc(N(C)C)cc5)cc4C)cc3C)nc2c1 [Example 14]
A) 111

====

Below, each entry is listed with its recorded Solubility L.
- protocol-notes: solubility L in ZLI 1840 at room temperature
- Format: physicochemical
- settings: ZLI 1840 (Merck), stirred 1 week

# example entries with known answers
chemical-string: CCCCOc1ccc(N=Nc2ccc(N=Nc3ccc(-n4nc5ccc(C)cc5n4)c(C)c3)c(C)c2)c(C)c1
Solubility L: 0,5%
//
chemical-string: CN(C)c1ccc(N=Nc2ccc(-n3nc4c(n3)CCCC4)cc2)cc1
Solubility L: 1,4%

Q) Identify the reported Solubility L for the following entry. Cc1ccc2nn(-c3ccc(N=Nc4ccc(N=Nc5ccc(N(C)C)cc5)cc4C)cc3C)nc2c1
A) 2,8%

Q) Identify the reported Solubility L for the following entry. Cc1nn(-c2cc(C#N)c(N=Nc3ccc(N=Nc4ccc(N(C)C)cc4)cc3)c(C#N)c2)nc1C
A) < 0,1%

====

- protocol-notes: degree of order S (dichroic ratio CR) in ZLI 1840 at room temperature
- Assay type: physicochemical
- Parameters: key: S = (CR-1)/(CR+2), with CR = E∥/E⊥ dichroic ratio
- settings: ZLI 1840 wide-range mixture (Merck)
measure-name: Degree of order S

# example entries with known answers
compound: CCCCc1ccc2nn(-c3ccc(N=Nc4cc(C)c(N=Nc5ccc(N(C)C)cc5)cc4C)cc3C)nc2c1 [Example 14]
Degree of order S: 0,76

compound: Cc1ccc2nn(-c3cc(C)c(N=Nc4cc(C)c(N=Nc5ccc(N(C)C)cc5)cc4C)cc3C)nc2c1 [Example 9]
Degree of order S: 0,76

compound: Cc1nn(-c2cc(Br)c(N=Nc3ccc(N=Nc4ccc(N(C)C)cc4)cc3)c(Br)c2)nc1C [Example 6]
Degree of order S: 0,61

compound: CCCCN(CCCC)c1ccc(N=Nc2ccc(N=Nc3ccc(-n4nc5ccc(C)cc5n4)c(C)c3)c(C)c2)cc1 [Example 13]
Degree of order S: 0,74

compound: Cc1nn(-c2ccc(N=Nc3ccc(N=Nc4ccc(N(C)C)cc4)cc3)cc2)nc1C [Example 3]
Degree of order S: 0,74

Q) Identify the reported Degree of order S for the following entry. CCC1CCC(c2ccc(COc3ccc(N=Nc4cc(C)c(N=Nc5ccc(-n6nc7ccc(C)cc7n6)c(C)c5)cc4C)c(C)c3)cc2)CC1 (centres unmarked) [Example 18]
A) 0,77
